B1: PTPRD (parent)
chain: MVHVARLLLLLLTFFLRTDAETPP

Variants of: B1
Run Description: protein stability index of a GFP-peptide fusion (GPS, HEK-293T) (PSI 1-6); higher = more stable;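 note: lentivirally expressed fusions sorted by FACS into six bins by GFP to DsRed ratio, PSI derived from sequencing read proportions per bin multiplied by bin number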
Measurement Setup: c terminus: a fixed tail appended
Metric Name: protein stability index
Please state the value as a number alone, without comment.

Some entries whose results are on file:
>  <Mutation Spec>
D19C

>  <protein stability index>
4.03

$$$$
>  <Mutation Spec>
T22S

>  <protein stability index>
4.07

$$$$
>  <Mutation Spec>
F14Q

>  <protein stability index>
2.15

$$$$
>  <Mutation Spec>
L9K

>  <protein stability index>
3.08

$$$$
>  <Mutation Spec>
H3S

>  <protein stability index>
4.08

$$$$

Measured protein stability index of L12W : 2.53

Lab note: T22F gave protein stability index of 1.95

# protein stability index of F15I = 2.25

The reported value for R6T in terms of protein stability index is 2.3
